Data provenance: BindingDB's records for patent US20250136608

target: Tyrosine-protein kinase JAK3 (Homo sapiens, UniProt P52333); test: JAK3 Kinase Inhibitory Activity Assay
Sequence (P52333 whole entry): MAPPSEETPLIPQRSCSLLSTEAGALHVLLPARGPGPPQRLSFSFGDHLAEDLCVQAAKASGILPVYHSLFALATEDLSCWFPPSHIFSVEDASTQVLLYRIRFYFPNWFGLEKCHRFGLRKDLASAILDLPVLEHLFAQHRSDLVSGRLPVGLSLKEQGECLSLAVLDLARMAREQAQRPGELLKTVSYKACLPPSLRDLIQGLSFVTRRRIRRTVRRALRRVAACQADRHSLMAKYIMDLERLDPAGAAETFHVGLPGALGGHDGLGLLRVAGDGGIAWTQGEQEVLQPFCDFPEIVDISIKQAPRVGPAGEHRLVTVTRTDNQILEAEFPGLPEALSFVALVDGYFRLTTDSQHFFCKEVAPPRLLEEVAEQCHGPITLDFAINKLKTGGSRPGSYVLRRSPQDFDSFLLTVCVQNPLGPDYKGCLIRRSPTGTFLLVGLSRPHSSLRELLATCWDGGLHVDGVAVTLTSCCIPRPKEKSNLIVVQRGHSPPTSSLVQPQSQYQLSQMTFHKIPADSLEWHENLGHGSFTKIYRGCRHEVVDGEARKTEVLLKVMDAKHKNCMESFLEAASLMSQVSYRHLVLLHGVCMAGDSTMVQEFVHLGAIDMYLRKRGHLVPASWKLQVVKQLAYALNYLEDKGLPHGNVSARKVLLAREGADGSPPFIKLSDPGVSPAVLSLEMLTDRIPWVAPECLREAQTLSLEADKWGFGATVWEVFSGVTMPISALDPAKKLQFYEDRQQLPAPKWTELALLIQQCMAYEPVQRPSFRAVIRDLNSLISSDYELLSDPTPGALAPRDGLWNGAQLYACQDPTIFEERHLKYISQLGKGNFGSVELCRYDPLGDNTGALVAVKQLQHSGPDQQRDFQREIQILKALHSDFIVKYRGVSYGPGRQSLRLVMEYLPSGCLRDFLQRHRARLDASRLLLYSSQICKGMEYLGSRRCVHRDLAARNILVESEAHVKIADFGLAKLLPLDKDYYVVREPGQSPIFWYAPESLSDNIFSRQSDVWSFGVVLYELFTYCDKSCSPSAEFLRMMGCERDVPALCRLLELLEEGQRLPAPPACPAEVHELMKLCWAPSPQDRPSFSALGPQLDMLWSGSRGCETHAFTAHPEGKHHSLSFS
Measured quantity: IC50

I would be grateful if you could share the reported IC50 for N#CCC1(n2cc(-c3ncnc4[nH]ccc34)cn2)CCC(F)(F)CC1 .
241 nM

* * *

Measured quantity: IC50 (nM)
Field format: number, assumed nM, no unit text.

Lab request: please report IC50 under test system Tyrosine-protein kinase JAK2 (Homo sapiens) for N#CCC1(n2cc(-c3ncnc4[nH]ccc34)cn2)CCC(F)(F)CC1
2.8
